Biological target: HCV RdRp (NS5B RNA-dependent RNA polymerase) (Hepatitis C virus genotype 1b)
Construct: The HCV NS5B protein is the viral RdRp; made in house; host or cells: insect cells infected with recombinant baculovirus
Sequence (P26663 2420-3010): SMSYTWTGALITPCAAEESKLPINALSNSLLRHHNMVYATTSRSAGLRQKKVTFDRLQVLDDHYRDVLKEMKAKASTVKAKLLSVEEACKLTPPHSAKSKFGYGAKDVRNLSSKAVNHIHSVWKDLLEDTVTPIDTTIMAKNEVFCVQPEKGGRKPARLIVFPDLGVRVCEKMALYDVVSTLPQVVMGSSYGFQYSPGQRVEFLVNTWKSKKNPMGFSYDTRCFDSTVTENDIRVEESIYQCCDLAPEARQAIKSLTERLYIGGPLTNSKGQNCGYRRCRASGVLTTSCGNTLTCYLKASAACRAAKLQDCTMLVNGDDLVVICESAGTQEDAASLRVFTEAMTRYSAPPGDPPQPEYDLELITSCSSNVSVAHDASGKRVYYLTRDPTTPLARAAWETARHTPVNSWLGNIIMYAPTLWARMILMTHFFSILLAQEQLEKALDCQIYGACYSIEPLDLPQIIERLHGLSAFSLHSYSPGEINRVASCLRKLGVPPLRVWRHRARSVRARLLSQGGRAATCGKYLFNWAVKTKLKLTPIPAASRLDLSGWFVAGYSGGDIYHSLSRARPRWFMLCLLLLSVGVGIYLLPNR
Assay: Inhibition of hepatitis C virus RdRp (poly(A)/oligo(U), [3H]UTP incorporation)
Assay type: biochemical
Details: Tables I-VIII; 20 nM NS5B, 1 hour at 22° C.; read-out: IC 50 (μM), HCV-polymerase
Experimental: In initial tests, the compounds were tested to see if they were effective as inhibitors of the RNA-dependent RNA polymerase (RdRp) of hepatitis C virus (HCV). […] WO96/37619 describes the production of recombinant HCV RdRp from insect cells infected with recombinant baculovirus encoding the enzyme. […] Incorporation of tritiated UTP is quantified by measuring acid-insoluble radioactivity. […] Incorporation of radioactive UMP was measured as follows. […]
Hi! Could you tag entries with IC50 below 20 µM as 1, and those at or above as 0? Much appreciated.

{"compound": "COc1cccc(OC)c1C(=O)C=C(O)C(=O)O", "labelValue": 0}
{"compound": "Cc1c[nH]c(C)c1C(=O)C=C(O)C(=O)O", "labelValue": 0}
{"compound": "Cc1cc(C(=O)C=C(O)C(=O)O)c(C)o1", "labelValue": 1}
{"compound": "O=C(O)C(O)=CC(=O)c1cc2c(s1)CCCC2c1ccccc1 (stereo not shown)", "labelValue": 1}
{"compound": "N#CCCCOc1ccc(C#CCCCCl)cc1C(=O)C=C(O)C(=O)O", "labelValue": 0}
{"compound": "Cc1cc(COc2cccc(C(=O)C=C(O)C(=O)O)c2)no1", "labelValue": 1}
{"compound": "N#Cc1ccccc1COc1cc(O)cc(C(=O)C=C(O)C(=O)O)c1", "labelValue": 1}
{"compound": "O=C(O)C(O)=CC(=O)c1cccc(COc2ccccc2)c1", "labelValue": 0}
{"compound": "O=C(O)C(O)=CC(=O)c1ccccc1Oc1ccc(F)cc1", "labelValue": 1}
{"compound": "O=C(O)C(O)=CC(=O)c1cc(O)cc(OCc2ccccc2)c1", "labelValue": 1}
{"compound": "O=C(O)C(O)=CC(=O)c1cccn1CCCc1ccc(F)cc1", "labelValue": 0}
{"compound": "O=C(O)C(O)=CC(=O)c1cccc(S(=O)(=O)Nc2ccccc2)c1", "labelValue": 1}
{"compound": "CCOC(=O)c1ccccc1S(=O)(=O)Nc1cccc(C(=O)C=C(O)C(=O)O)c1", "labelValue": 0}

====

Biological target: HCV RdRp (NS5B RNA-dependent RNA polymerase) (Hepatitis C virus genotype 1b)
Construct: The HCV NS5B protein is the viral RdRp; made in house; host or cells: insect cells infected with recombinant baculovirus
Assay: Inhibition of hepatitis C virus RdRp (poly(A)/oligo(U), [3H]UTP incorporation)
Assay type: biochemical
Details: Tables IXa-IXc; unit inferred; read-out: HCV (IC50)
Collected IC50 values appear next to each entry.

{"compound": "O=C(O)C(O)=CC(=O)c1ccccc1OCc1ccccc1 [Example 8]", "readoutUnits": "µM", "IC50": 44}
{"compound": "N#Cc1c(Cl)cc(Cl)cc1COc1cccc(C(=O)C=C(O)C(=O)O)c1 [Example 126]", "readoutUnits": "µM", "IC50": 0.056}
{"compound": "O=C(O)C(O)=CC(=O)c1ccc(Br)s1 [Example 198]", "readoutUnits": "µM", "IC50": 7.9}
{"compound": "O=C(O)C(O)=CC(=O)c1ccc(Cc2ccc(F)cc2)s1 [Example 206]", "readoutUnits": "µM", "IC50": 65}
{"compound": "C=CCOc1ccccc1C(=O)C=C(O)C(=O)O [Example 16]", "readoutUnits": "µM", "IC50": 4.3}
{"compound": "Cc1sc(-c2ccccc2)cc1C(=O)C=C(O)C(=O)O [Example 225]", "readoutUnits": "µM", "IC50": 167}
{"compound": "O=C(O)C(O)=CC(=O)c1cccc(OCc2ccccc2C(=O)O)c1 [Example 90]", "readoutUnits": "µM", "IC50": 1.8}
{"compound": "Cc1ccc(C(=O)C=C(O)C(=O)O)cc1 [Example 161]", "readoutUnits": "µM", "IC50": 2.8}
{"compound": "COc1cc(C)c(C#N)c(COc2cccc(C(=O)C=C(O)C(=O)O)c2)c1 [Example 111]", "readoutUnits": "µM", "IC50": 0.12}
{"compound": "N#Cc1ccc(-c2ccccc2)cc1COc1cccc(C(=O)C=C(O)C(=O)O)c1 [Example 116]", "readoutUnits": "µM", "IC50": 0.3}
{"compound": "O=C(O)C(O)=CC(=O)c1ccccc1Cc1ccc(F)cc1 [Example 40]", "readoutUnits": "µM", "IC50": 8.3}
{"compound": "O=C(O)C(O)=CC(=O)c1cccc(OCCc2ccccc2)c1 [Example 18]", "readoutUnits": "µM", "IC50": 2.2}
